What pIC50 was measured for each of the following?
Convention used: pIC50 is expressed as -log10 of the molar concentration.

Task item: Which measured pIC50 belongs to CCOc1ccc(CC(=O)O)cc1-c1ccc(F)c2c1CN(C(=O)CC(C)c1cnccn1)CC2 (racemic) , tested on hCRTH2 receptor (Homo sapiens (Human), UniProt Q9Y5Y4)?
Reply: 7.56

Task item: Reported pIC50 for hCRTH2 receptor (Homo sapiens (Human), UniProt Q9Y5Y4), given COc1ccc(CC(=O)O)cc1-c1ccc(F)c2c1CN(C(=O)C1CCc3cccc(OC)c3C1)CC2 (racemic) ?
Reply: 8.08

Task item: Form field - read-out: pIC50; system: hCRTH2 receptor (Homo sapiens (Human), UniProt Q9Y5Y4); submitted item: CCOc1ccc(CC(=O)O)cc1-c1ccc(F)c2c1CN(C(=O)CC1CCc3ccccc31)CC2 (racemic)
Sequence (Q9Y5Y4 whole entry): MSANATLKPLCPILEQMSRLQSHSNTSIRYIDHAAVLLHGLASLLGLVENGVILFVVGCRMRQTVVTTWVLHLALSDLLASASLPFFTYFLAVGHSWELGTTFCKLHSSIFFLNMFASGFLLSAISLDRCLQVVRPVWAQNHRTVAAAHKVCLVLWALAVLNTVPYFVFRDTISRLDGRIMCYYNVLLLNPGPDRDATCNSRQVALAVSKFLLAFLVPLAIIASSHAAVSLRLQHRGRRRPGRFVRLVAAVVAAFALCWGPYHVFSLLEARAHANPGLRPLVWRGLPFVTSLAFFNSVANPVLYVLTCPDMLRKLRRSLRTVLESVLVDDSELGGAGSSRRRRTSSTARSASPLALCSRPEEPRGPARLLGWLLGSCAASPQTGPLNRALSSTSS
Reply: 8.04

Task item: What is its pIC50 for hCRTH2 receptor (Homo sapiens (Human), UniProt Q9Y5Y4)? Entry: CCOc1cc(CC(=O)O)ccc1-c1ccc(F)c2c1CN(C(=O)OCc1cccc(C)n1)CC2
Reply: 9.10

Task item: Which measured pIC50 belongs to COc1cc(OC(C)C(=O)O)ccc1-c1ccc(F)c2c1CN(C(=O)OCc1ccccc1)CC2 (stereo not shown) , tested on hCRTH2 receptor (Homo sapiens (Human), UniProt Q9Y5Y4)?
Reply: 6.75

Task item: # returns recorded pIC50 (system: hCRTH2 receptor (Homo sapiens (Human), UniProt Q9Y5Y4)) for COc1ccc(CC(=O)O)cc1-c1ccc(F)c2c1CN(C(=O)Cc1cn(C)c3ccccc13)CC2
Reply: 7.16

Task item: API: value(readout= pIC50, system= hCRTH2 receptor (Homo sapiens (Human), UniProt Q9Y5Y4), query= COc1cc(OCC(=O)O)ccc1-c1ccc(F)c2c1CN(C(=O)OCc1ccccc1)CC2 )
Reply: 6.35
